Tested on: COLO 205 colon
method_summary: NCI tumour cell line growth inhibition, 48 h
endpoint_label: TGI (µM)
Numbers only, in µM.

Some solved entries appear below for comparison.
molecule=C[n+]1c2ccccc2c(NC2CCNCC2)c2[nH]c3ccccc3c21 system_name="COLO 205 colon" numeric_readout=2
molecule=COCOc1cc(OC)ccc1C=O system_name="COLO 205 colon" numeric_readout=54.2
molecule="CC1(C(O)c2ccccc2)CN(C(C)(C)C)C(=O)/C1=C\\Sc1ccccc1 (stereo not given)" system_name="COLO 205 colon" numeric_readout=50.7
molecule="COc1ccc(OC)c2c1C[C@@H]1C(C#N)N3[C@H](Cc4c(OC)ccc(OC)c4[C@@H]3C)C(=O)N1[C@H]2C (stereo not given in full)" system_name="COLO 205 colon" numeric_readout=3.52
molecule=CCOC(=O)c1ccc(N=C/C=C(\Nc2ccc(C(=O)OCC)cc2)c2ccc3ccccc3c2)cc1 system_name="COLO 205 colon" numeric_readout=32.6
molecule="CCCCc1cc2c(cc1O)CCC1C2CC[C@@]2(C)C1CC[C@@H]2O (stereo not given in full)" system_name="COLO 205 colon" numeric_readout=49.5
molecule=COC(=O)c1ccc2c(c1)nc(-c1ccc(Cl)cc1)n2-c1cc(C(C)(C)C)[nH]n1 system_name="COLO 205 colon" numeric_readout=6.04
molecule="CC(C)(C)[Si](C)(C)OCC1OC(n2ccc(=O)[nH]c2=O)C(O[Si](C)(C)C(C)(C)C)/C1=N/O (stereo not given)" system_name="COLO 205 colon" numeric_readout=5.69

For every listed record, write down its TGI.
1. COc1cc(O)c(C(=O)/C=C/c2ccc(O)cc2)cc1Oc1ccc(C(=O)/C=C/c2ccc(O)cc2)c(O)c1
2. COC(=O)c1nc2c(C)c(O)c(O)c([C@H](C)CCC=C(C)C)c2o1
3. O=[N+]([O-])c1ccc2[nH]cc(-c3c4ccccc4cc4[nH]c5ccc([N+](=O)[O-])cc5c34)c2c1

1: 3.58; 2: 35.6; 3: 7

For every listed record, write down its TGI.
1. CC(=O)O[C@H]1C(=O)[C@]2(C)[C@@H](OC(=O)OCC(O)CO)C[C@H]3OC[C@@]3(OC(C)=O)[C@H]2[C@H](OC(=O)c2ccccc2)[C@]2(O)C[C@H](OC(=O)[C@H](O)[C@@H](NC(=O)c3ccccc3)c3ccccc3)C(C)=C1C2(C)C (stereo not given in full)
2. CC1CCN(c2nnc(Cl)cc2C(=O)c2ccccc2)CC1
3. O=Nc1c(-c2cccc([N+](=O)[O-])c2)nc2ncccn12

1. 0.683
2. 46.9
3. 19.9
